Molecular target: T1, TNFR1 (Homo sapiens, UniProt P19438)
T1 chain: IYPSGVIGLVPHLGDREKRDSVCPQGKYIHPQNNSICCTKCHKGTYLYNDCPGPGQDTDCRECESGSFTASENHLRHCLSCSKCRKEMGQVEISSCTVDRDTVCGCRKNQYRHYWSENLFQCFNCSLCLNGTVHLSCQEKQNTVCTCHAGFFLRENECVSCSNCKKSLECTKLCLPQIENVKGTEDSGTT
Assay: yeast display SC50
Reported property: apparent Kd (screen) (nM)

| Binder | Units symbol | Endpoint value |
| --- | --- | --- |
| W68L (designed binder) MTLQELLREEALRRAEAEAFRYALELLAEKFPEQKEYLLDLAEEIESQIRSLSGVDVEDVRKFLDKELAWVKELLAEHPAELAEVEAARAARLAELRAEVEAKVAA | nM | 0.539 |
| E9H (designed binder) MTLQELLRHEALRRAEAEAFRYALELLAEKFPEQKEYLLDLAEEIESQIRSLSGVDVEDVRKFLDKEWAWVKELLAEHPAELAEVEAARAARLAELRAEVEAKVAA | nM | 0.593 |

A. A94H (designed binder) MTLQELLREEALRRAEAEAFRYALELLAEKFPEQKEYLLDLAEEIESQIRSLSGVDVEDVRKFLDKEWAWVKELLAEHPAELAEVEAARAARLHELRAEVEAKVAA
B. R92Q (designed binder) MTLQELLREEALRRAEAEAFRYALELLAEKFPEQKEYLLDLAEEIESQIRSLSGVDVEDVRKFLDKEWAWVKELLAEHPAELAEVEAARAAQLAELRAEVEAKVAA
Query string: Field: entry with larger apparent Kd (screen) (options A / B ). Field: selected label. Fill in the label of the entry you choose.
Result string: A
(A: 0.446 nM, B: 0.304 nM)
